System: SBS#1760 ZFP (synthetic)
Experiment: EMSA
Settings: 100 mM KCl, 1 mM MgCl2, 100 uM ZnCl2, pH 7.5, RT
OBSERVATION TYPE: Kd (pM)
Numeric only. Scale: pM

Fill in: Kd of ATGGCCGGG (double strand) [SBS#1760 target (-299)] is ___
420

---

Tested on: SBS#519 ZFP (synthetic)
Test: EMSA
Settings: listed twice (-343 and -329, same 9 bp, SEQ 21 and 23); 100 mM KCl, 1 mM MgCl2, 100 uM ZnCl2, pH 7.5, RT
OBSERVATION TYPE: pKd
Here pKd is given on a logarithmic scale as minus log10 of the concentration in mol/L.

Fill in: pKd of GGGGAGGAG (double strand) [SBS#519 target (-343 and -329)] is ___
8.95

Cited source for all entries: patent US20040132033
